- Tested on: Abeta 40 in cerebrospinal fluid (CSF) and brain
- method: In vivo inhibition of beta-secretase (Abeta 40 reduction in CSF and brain)
- condition-notes: rat, brain, Abeta 40, 10 mg/kg (10 mpk), after 4 hrs; read-out: Brain A-beta reduction % at 10 mg/kg
quantity: inhibition in vivo at 10 mg/kg (%)
Quick reminder: number only, in %, skip the unit.

Short answer for `NC1=N[C@@]2(CO1)c1cc(-c3cnccn3)ccc1Oc1c(F)cc(C3=CCOCC3)cc12` : inhibition in vivo at 10 mg/kg was 35

Short answer for `NC1=N[C@@]2(CS1)c1cc(-c3cccnc3F)ccc1Oc1ncc(C3=CCOCC3)cc12` : inhibition in vivo at 10 mg/kg was 28

Short answer for `NC1=N[C@@]2(CO1)c1cc(-c3cccnc3)ccc1Oc1c2cc(C2=CCCOC2)nc1F` : inhibition in vivo at 10 mg/kg was 69

Short answer for `NC1=N[C@@]2(CO1)c1cc(-c3cccnc3F)ccc1Oc1c(F)cc(N3CC4CCC(C3)O4)cc12` : inhibition in vivo at 10 mg/kg was 47

Short answer for NC1=N[C@@]2(CS1)c1cc(-c3cccnc3F)ccc1Oc1c2cc(-c2ccnc(F)c2)nc1F (single isomer, unassigned) : inhibition in vivo at 10 mg/kg was 43

Short answer for `NC1=N[C@@]2(CS1)c1cc(-c3cccnc3F)ccc1Oc1c(F)cc(-c3cccnc3)cc12` : inhibition in vivo at 10 mg/kg was 53

Short answer for `Cc1cnc(F)c(-c2ccc3c(c2)[C@@]2(COC(N)=N2)c2cc(N4CCOCC4)cc(F)c2O3)c1` : inhibition in vivo at 10 mg/kg was 45

----------
- study-target: Beta Secretase enzyme (BACE) (Homo sapiens)
- Sequence (P56817 46-501, species assumed): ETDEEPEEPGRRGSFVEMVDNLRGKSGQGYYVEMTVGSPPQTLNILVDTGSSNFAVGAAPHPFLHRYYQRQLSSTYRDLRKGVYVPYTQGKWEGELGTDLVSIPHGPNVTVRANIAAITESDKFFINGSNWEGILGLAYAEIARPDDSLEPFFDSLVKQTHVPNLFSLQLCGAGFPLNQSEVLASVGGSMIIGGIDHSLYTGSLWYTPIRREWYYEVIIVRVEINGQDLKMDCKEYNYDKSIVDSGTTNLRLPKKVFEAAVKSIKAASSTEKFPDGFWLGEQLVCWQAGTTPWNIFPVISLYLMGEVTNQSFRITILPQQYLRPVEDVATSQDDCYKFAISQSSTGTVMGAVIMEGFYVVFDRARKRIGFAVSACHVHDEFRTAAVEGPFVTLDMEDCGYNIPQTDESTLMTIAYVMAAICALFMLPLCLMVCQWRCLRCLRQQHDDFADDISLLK
- method: In vitro enzymatic BACE FRET (fluorescence resonance energy transfer) assay
- Assay type: biochemical
- condition-notes: average IC50, enzyme assay; read-out: BACE 1 FRET assay
# note: boundary value 50 nM maps to Criterion not met; IC50 below it maps to Criterion met

Determine if `NC1=N[C@@]2(CC1(F)F)c1cc(-c3cccnc3)ccc1Oc1ncc(-c3cccnc3)cc12` shows IC50 strictly lower than 50 nM.
Criterion not met

Determine if `NC1=N[C@]2(CO1)c1cc(-c3cccnc3F)c(F)cc1Oc1c(F)cc(C3=CCCOC3)cc12` shows IC50 strictly lower than 50 nM.
Criterion not met

Determine if `NC1=N[C@@]2(CO1)c1cc(-c3cccnc3F)ccc1Oc1cnc(N3CCC(F)CC3)cc12` shows IC50 strictly lower than 50 nM.
Criterion met

Determine if `NC1=N[C@]2(CO1)c1cc(-c3cccnc3F)c(F)cc1Oc1c(F)cc(C3=CCOCC3)cc12` shows IC50 strictly lower than 50 nM.
Criterion not met

Determine if `NC1=N[C@@]2(CS1)c1cc(-c3cccnc3F)ccc1Oc1c2cc(C2CCOCC2)nc1F` shows IC50 strictly lower than 50 nM.
Criterion met

Determine if `CC(C)(C#N)COc1cc2c(c(F)c1F)Oc1ccc(-c3cccnc3)cc1[C@]21COC(N)=N1` shows IC50 strictly lower than 50 nM.
Criterion met

Determine if `CC#Cc1cncc(-c2ccc3c(c2)[C@@]2(CSC(N)=N2)c2cc(-c4ncccn4)cnc2O3)c1` shows IC50 strictly lower than 50 nM.
Criterion met

----------
Can you tell me IC50 for the items I'm about to list?
- study-target: Beta Secretase enzyme (BACE) (Homo sapiens)
- method: In vitro enzymatic BACE FRET (fluorescence resonance energy transfer) assay
- Assay type: biochemical
- condition-notes: average IC50, enzyme assay; read-out: BACE 1 FRET assay
Quick reminder: number only, in nM, skip the unit.

Short answer for `NC1=N[C@@]2(CO1)c1cc(-c3ccnc(F)c3)ccc1Oc1cnc(C3=CCOCC3)cc12` : IC50 was 26.1

Short answer for `Cc1ccc(-c2cnc3c(c2)[C@]2(CSC(N)=N2)c2cc(-c4cnccc4F)ccc2O3)cn1` : IC50 was 1.2

Short answer for `CC#Cc1cncc(-c2ccc3c(c2)[C@@]2(COC(N)=N2)c2cc(C4=CCOCC4)cc(F)c2O3)c1` : IC50 was 0.3

Short answer for `NC1=N[C@@]2(CO1)c1cc(-c3ccc(N4CCC(F)(F)C4)nc3)ccc1Oc1cnc(N3CCC(F)(F)C3)cc12` : IC50 was 458

Short answer for `NC1=N[C@@]2(CO1)c1cc(-c3cncc(F)c3)ccc1Oc1cnc(N3CCC(F)(F)C3)cc12` : IC50 was 0.8

Short answer for `CC1(C#Cc2cnc3c(c2)[C@]2(COC(N)=N2)c2cc(-c4cncc(F)c4)c(F)cc2O3)COC1` : IC50 was 0.9

Short answer for `COc1ccc2c(c1)[C@@]1(COC(N)=N1)c1cc(C3(F)COC3)cc(F)c1O2` : IC50 was 4560

Short answer for `CC(C)(C)COc1cc2c(cn1)Oc1ccc(-c3cccnc3F)cc1[C@]21COC(N)=N1` : IC50 was 116

Short answer for `CC1(COc2ccc3c(c2)[C@@]2(COC(N)=N2)c2cc(Br)cc(F)c2O3)COC1` : IC50 was 202

Short answer for `Cc1ccc(Oc2ccc3c(c2)[C@@]2(COC(N)=N2)c2cc(C4=CCOCC4)cc(F)c2O3)nc1` : IC50 was 21.1

Short answer for `NC1=N[C@@]2(CS1)c1cc(-c3cccnc3)ccc1Oc1c(F)cc(C3=CCOCC3)cc12` : IC50 was 0.5

Short answer for `COc1ncc(-c2cc(F)c3c(c2)[C@]2(COC(N)=N2)c2cc(-c4cncc(F)c4)ccc2O3)cn1` : IC50 was 7.5

Short answer for `NC1=N[C@@]2(CO1)c1cc(-c3cncnc3)c(F)cc1Oc1c(F)cc(C3=CCCOC3)cc12` : IC50 was 0.4

Short answer for `CC(C)(C)COc1ccc2c(c1)[C@]1(COC(N)=N1)c1cc(C3=CCCOC3)ccc1O2` : IC50 was 22.3

Short answer for `NC1=N[C@@]2(CO1)c1cc(-c3cccnc3F)ccc1Oc1c2cc(C2=CCOCC2)c(F)c1F` : IC50 was 0.5

Source of measurements: patent US8883782B2
